# system: T1, human CD4 on cells (SKW3 cells; human PBMCs) (human, UniProt P01730 26-458)
# T1 construct: whole, on cells; SKW3 CD4 knockout cells served as the negative cell line; also called hCD4
# assay-method-text: FACS confirmation, supernatant on SKW3 WT cells, anti-human kappa FITC; background gMFI 2500
measured-property: SKW3 WT anti-hu Kappa FITC, gMFI

Record excerpt, results attached:
75110_01J17A (antibody, IgG1, V domains shown, Tested as non-clonal AlivaMab Mouse Kappa hybridoma supernatant: human variable domains and human kappa, mouse Fc) VH: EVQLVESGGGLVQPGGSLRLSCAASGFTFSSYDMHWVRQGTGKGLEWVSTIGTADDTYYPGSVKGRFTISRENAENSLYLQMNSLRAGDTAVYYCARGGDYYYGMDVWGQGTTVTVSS VL: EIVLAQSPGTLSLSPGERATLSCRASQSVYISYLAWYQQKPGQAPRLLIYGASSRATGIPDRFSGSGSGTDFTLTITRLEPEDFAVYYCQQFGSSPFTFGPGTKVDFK : 5780 gMFI
75110_04P06A (antibody, IgG1, V domains shown, Tested as non-clonal AlivaMab Mouse Kappa hybridoma supernatant: human variable domains and human kappa, mouse Fc) VH: EVQLVESGGGLVQPGGSLRLSCAASGFTFSNYDMHWVRQATGKGLEWVSTIGTAGDTYYPGSVKGRFTISRENAKNSLYLQMNSLRAGDTAVYYCARGGDYYYGMDVWGQGTTVTVSS VL: EIVLTQSPDTLSLSPGERATLSCRASQSLSSVYLAWYQQKPGQAPRLLIYGASSRATGIPDRFSGSGSGTDFTLTINRLEPEDFVVYYCQQYGSSPFTFGPGTKVDIK : 5600 gMFI
75110_01D24A (antibody, V domains shown, Tested as non-clonal AlivaMab Mouse Kappa hybridoma supernatant: human variable domains and human kappa, mouse Fc) VH: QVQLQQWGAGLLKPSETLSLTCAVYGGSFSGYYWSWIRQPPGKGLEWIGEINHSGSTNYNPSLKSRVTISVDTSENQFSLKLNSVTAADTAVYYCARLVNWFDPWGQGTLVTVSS VL: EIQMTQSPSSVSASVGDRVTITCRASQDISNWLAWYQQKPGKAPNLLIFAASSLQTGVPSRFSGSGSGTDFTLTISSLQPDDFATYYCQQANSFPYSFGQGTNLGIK : 5520 gMFI

Record summary for 75110_04F22A (antibody, V domains shown, Tested as non-clonal AlivaMab Mouse Kappa hybridoma supernatant: human variable domains and human kappa, mouse Fc) VH: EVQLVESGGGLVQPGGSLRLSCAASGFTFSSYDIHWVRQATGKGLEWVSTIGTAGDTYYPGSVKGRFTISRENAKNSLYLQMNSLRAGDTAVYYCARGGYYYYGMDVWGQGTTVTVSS VL: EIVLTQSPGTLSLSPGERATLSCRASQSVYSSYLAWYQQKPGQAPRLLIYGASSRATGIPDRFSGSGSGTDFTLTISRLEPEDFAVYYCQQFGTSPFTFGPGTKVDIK : reported SKW3 WT anti-hu Kappa FITC, gMFI = 5580 gMFI

Record summary for 75110_13P22A (antibody, IgG1, V domains shown, Tested as non-clonal AlivaMab Mouse Kappa hybridoma supernatant: human variable domains and human kappa, mouse Fc) VH: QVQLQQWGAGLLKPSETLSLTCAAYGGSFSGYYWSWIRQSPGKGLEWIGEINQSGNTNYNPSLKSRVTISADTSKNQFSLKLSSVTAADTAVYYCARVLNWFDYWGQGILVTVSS VL: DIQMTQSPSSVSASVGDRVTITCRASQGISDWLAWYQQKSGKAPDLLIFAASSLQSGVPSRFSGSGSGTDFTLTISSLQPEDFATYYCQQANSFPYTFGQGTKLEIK : reported SKW3 WT anti-hu Kappa FITC, gMFI = 5910 gMFI
